- Tested on: DU-145 prostate
- test_method_notes: NCI-60 one-dose screen, 48 h (100 = growth as untreated, 0 = no growth, -100 = all killed)
- assay_context: 10 µM unless noted
About 83,000 compounds went through this panel and 20% of them were active in at least one assay; those are over-represented in the sample as a whole.
endpoint_label: growth (%)
# unit: % | format: bare number

Value wanted: growth (DU-145 prostate) of entry CN(C)CCCNc1nc2ccccc2c2c(=O)c3cc(F)ccc3sc12
26.2

Missing value: growth, DU-145 prostate, entry c1ccc2cc(C[n+]3ccn(CCCCCCCCCCCCn4cc[n+](Cc5ccc6ccccc6c5)c4)c3)ccc2c1 . Fill in?
-46.5

Checklist item: growth tested on DU-145 prostate, entry O=C(/C=C/c1ccc([N+](=O)[O-])o1)NNC(=O)c1cc2ccccc2cc1O , value?
11.7

# query: growth | item NS(=O)(=O)c1ccc(N=Nc2ccc(-c3nn4cc(-c5ccccc5)nc4s3)cc2)cc1 | system: DU-145 prostate
108

# value lookup — system DU-145 prostate, readout growth, item O=C(/C=C/c1cccc2ccccc12)c1ccc(NC(=O)c2ccccc2CN2C(=O)c3ccccc3C2=O)cc1
42.7

Please state recorded growth (tested on DU-145 prostate) of Cc1ccc(-c2nn(C)c(=O)c3noc(-c4ccc(C)cc4)c23)cc1
35.3

// map CCOC(=O)/C=C1\S/C(=N\Nc2ccc([N+](=O)[O-])cc2[N+](=O)[O-])N(Cc2ccccc2)C1=O to recorded growth (system: DU-145 prostate)
81.4

Form field: growth recorded for FC(F)(F)c1cc(Nc2ccc3c(OCCCN4CCOCC4)cccc3n2)ccc1Cl with DU-145 prostate (enter value)
55.9

Form field: growth recorded for Cc1ccc(C(=O)N/N=C/c2cccc([N+](=O)[O-])c2)cn1 with DU-145 prostate (enter value)
100

###

- Test system: UACC-257 melanoma
- test_method_notes: NCI-60 one-dose screen, 48 h (100 = growth as untreated, 0 = no growth, -100 = all killed)
- assay_context: 10 µM unless noted
Compounds without any hit were thinned out: in the full panel of roughly 83,000, 20% have a hit. Calls of active or inactive are those of the source. How the source made its calls: active means growth percent below 10; inactive means the rest.
endpoint_label: growth

Any idea what its growth is? The compound is C#C[C@]1(O)CC[C@H]2[C@@H]3CC=C4c5sc(Nc6ccccc6)nc5CC[C@]4(C)[C@H]3CC[C@@]21C
30.4% (inactive)

Fill in the blank: the reported growth of Cc1cc2nc3cc(C)c(N)cc3[n+](-c3ccccc3)c2cc1N is ____.
32.6% (inactive)

So what does the record say about growth for COC(=O)CCC/C=C\C[C@H]1C=CC(=O)/C1=C/C[C@@H](O)CCc1cccc(C(F)(F)F)c1 ?
-6.49% (active)

Value lookup for growth; key = COc1ccc2c(c1)c(-c1ccc(-c3cn(C)c4ccc(OC)cc34)o1)cn2C
90% (inactive)

// returns reported growth for input Cc1cccc2c3c(sc12)C(c1ccc(Cl)cc1)C(C#N)=C(/N=C/c1ccc(Cl)cc1)O3 (centres undefined)
65.1% (inactive)

Could you share which growth value was measured for CNCCCC12CCC(c3ccccc31)c1ccccc12 ?
95.9% (inactive)

Entry under review: N#Cc1c(-c2ccc(Cl)cc2)nc(NCCO)[nH]c1=O . Reported growth?
107% (inactive)

Recorded growth for N#C/C(=C\c1cccc2cnccc12)n1nnc2cccc(F)c21 , please?
52.1% (inactive)

Fill in the blank: the reported growth of C[C@]12CC[C@@H]3c4cc(OC(F)F)c(OS(N)(=O)=O)cc4CC[C@H]3[C@@H]1CC[C@@H]2OS(N)(=O)=O is ____.
62.2% (inactive)

Give its growth value. Item: COc1ccc2cc(C(C)C(=O)Nc3ccc(-c4n[nH]c(=S)n4C4CCCCC4)cc3)ccc2c1 (centres undefined)
76.7% (inactive)

Return reported growth; argument: COc1ccc(S(=O)(=O)n2c3ccccc3n3ncc(-c4nnc(C)o4)c23)cc1
84.1% (inactive)

Quick check: growth of c1ccc(CO[C@H]2CO[C@H]3[C@@H]2OC[C@@H]3Oc2ccc(Nc3ncnc4ccsc34)cc2)cc1 ?
78% (inactive)

Entry CCOC(=O)c1cnn2c3ccccc3n(S(=O)(=O)c3ccc(OC)cc3)c12 : reported growth = ?
80.1% (inactive)

# get_value(readout='growth', item= C=C1C(=O)O[C@H]2[C@H]1CC/C(COC(=O)CCC(=O)NCCOCCOCC(=O)Nc1ccc(OC)c(C(N)=O)c1O)=C\CC[C@@]1(C)O[C@@H]21 )
77.6% (inactive)

Entry COc1ccc(/C=C(\C#N)n2nnc3c(F)cccc32)cc1 has what growth?
62.6% (inactive)

Consider the compound shown here: CCN(CC)c1ccc(C2=NN(C(C)=O)C(c3cc(OC)c(OC)c(OC)c3)C2)cc1 (centres undefined) What is its recorded growth?
55.9% (inactive)

Query (compound): Nc1ccc(Sc2ccc([N+](=O)[O-])c3nonc23)cc1 ; field requested: growth
86.9% (inactive)

GET /values?readout=growth&item= O=c1c2cc(C(F)(F)F)ccc2sc2c(NCCCNCCO)nc3ccccc3c12
92% (inactive)

For O=C(O)CCC/C=C\C[C@H]1C=CC(=O)/C1=C/C[C@@H](O)CCc1cccc(C(F)(F)F)c1 , what is its reported growth?
-5.2% (active)

###

- Tested on: U251 CNS
- test_method_notes: NCI-60 one-dose screen, 48 h (100 = growth as untreated, 0 = no growth, -100 = all killed)
- assay_context: 10 µM unless noted
About 83,000 compounds went through this panel and 20% of them were active in at least one assay; those are over-represented in the sample as a whole.
Category key, based on recorded growth: Low: < 20%; Mid: ≥ 20% and < 60%; High: ≥ 60%

Which class holds c1ccc2cc(C[n+]3ccn(CCCCCCCCCCCCn4cc[n+](Cc5ccc6ccccc6c5)c4)c3)ccc2c1 ?
Low

For the record c1ccc2cc(C[n+]3ccn(CCCCCCn4cc[n+](Cc5ccc6ccccc6c5)c4)c3)ccc2c1 , report the class its growth corresponds to.
Mid

Textbook exercise: identify the category of the molecule given here, CC1=C([Se]CC(OC(=O)[C@@H](CSSC(C)(C)C)NC(=O)OC(C)(C)C)C(=O)NC(C)(C)C)C(=O)c2ccccc2C1=O (some centres undefined) , according to its measured value.
Low

Form field 'band' for Nc1nc(-c2cccc3ccccc23)cc2ccccc12
Low

Any idea which band O=C(/C=C/c1sc(Cl)nc1Cl)c1ccc(F)cc1 is in?
Mid

Dear colleague, I would appreciate it if you could identify the bin for CCN1C(=O)N(CC)C2Nn3c(s/c(=C\c4ccc([N+](=O)[O-])cc4)c3=O)=NC21 (centres undefined) and reply at your convenience.
High

# bin label for Cc1nc2ccccc2c(/C=C/c2ccc(Cl)cc2)c1C(=O)/C=C/c1ccc(C(F)(F)F)cc1
Low

Input CCc1ccccc1-n1c(N)c(C#N)c(-c2ccc(Cl)cc2)c(C#N)c1=O ; output its category
High

Please indicate the class for C/C(=C\C(=O)c1ccc(Cl)cc1)c1ccc(Cl)cc1 based on its growth.
High

Any idea which band O=C(Nc1ccc(I)cc1F)c1cc(I)ccc1O is in?
Low

State the class of the molecule shown: CCOC(=O)Nc1ccc(-c2nc(-c3cccc(OCCN4CCOCC4)c3)c(-c3ccnc(Br)c3)[nH]2)cc1
Mid

Which growth band matches COc1c(C2CC(=O)Nc3c2c(C)nn3-c2nc3ccccc3[nH]2)cc2c(c1OC)OCO2 (centres undefined) ?
Mid

Record CC(=O)c1ccc(Nc2nc(C(C)=O)c(C)s2)cc1 — which class?
High

Textbook exercise: identify the category of the molecule given here, Brc1c[n+](Cc2ccc3ccccc3c2)cn1Cc1ccc2ccccc2c1 , according to its measured value.
Mid

Class (by measured growth) for Cc1ccc(C(=O)NCCNc2nccc(-c3c(-c4cccc(F)c4)nc4sccn34)n2)cc1
High

Band assignment needed for Cc1cc(C)c(-c2c(N)cc(Br)cc2Br)c(N)c1 please.
Mid

Hello team, could you let me know which band the following molecule falls into: O=C1CCC/C=C\C[C@H]2C=CC(=O)/C2=C/C[C@H](CCc2cccc(C(F)(F)F)c2)O1
Low

Into which category would you place CC(C)(C)NC(=O)C(OC(=O)c1cccc(Cl)c1)c1ccc(Cl)cc1 (centres undefined) ?
High

###

- System: 786-0 renal
- test_method_notes: NCI-60 one-dose screen, 48 h
- assay_context: 10 µM unless noted
- Protocol: Cells are grown in 96 well plates and exposed to the test compound for 48 hours. Compounds are tested at a single concentration, which is 10^-5 M for most compounds. The reported endpoint is percent growth (GI% or GIPRCNT), where numbers from 0 - 100% represent growth inhibition, and numbers from -100% - 0 represent cell death. For example, a value of 40 represents 60% growth inhibition. A value of 0 means no net growth occurred over the course of the experiment. […]
About 83,000 compounds went through this panel and 20% of them were active in at least one assay; those are over-represented in the sample as a whole. Calls of active or inactive are those of the source. The calls were made as follows: active = growth percent below 10; inactive = the rest.
Assign a class; possible classes are yes (1) = active, no (0) = inactive

Entry Cn1cc(-c2cc3ncnc(Nc4ccc(CC(=O)Nc5cc(C(C)(C)C)nn5C)cc4)c3s2)cn1 : call = ?
no (0)

Hi, do you know how COc1cccc2nc3n(c12)C(c1c(F)cccc1F)SC3 (stereo not given) came out in this test?
no (0)

What call does the record list for Cc1cccc2c3c(sc12)C(c1ccc(Cl)cc1)C(C#N)=C(N)O3 (stereo not given) ?
no (0)

Entry CCCCn1c(=O)c(-c2cc(-c3ccc(Cl)cc3)nc(-c3ccc(Cl)cc3)c2)cc2ccc(Cl)cc21 : call = ?
no (0)

Any idea what this test logged for CCOC(=O)CC1C(COC(=O)NC)OC(n2cnc3c(NC(=O)Nc4ccccc4)ncnc32)C1O[Si](C)(C)C(C)(C)C (stereo not given) ?
no (0)

Dear colleague, could you share the recorded outcome for O=c1c2cc(F)ccc2sc2c(NCCCNCCO)nc3ccccc3c12 when you have a moment?
no (0)

Please share the test call associated with Oc1ccc(-c2nc3ccc4[nH]ncc4c3c3c2CCCC3)c2cccnc12 .
yes (1)

Any idea what this test logged for Cc1c(C(=O)N[C@@H](Cc2ccccc2)C(=O)C(=O)NCc2ccc(F)cc2)[nH]c2ccccc2c1=O ?
no (0)

What is the recorded call for this compound in the test? CCOC(=O)c1nc(Nc2ccc(C(C)=O)cc2)sc1C
no (0)

Please share the test call associated with Nc1nn(C(=O)Nc2ccc(Cc3ccccc3)cc2)c2ccc(Cl)cc12 .
no (0)

State the result this test recorded for C=C(C)C1CCC2(C)OC2C1 (stereo not given) .
no (0)

Record lookup: outcome of this test for COc1c(B(O)O)cc(C)cc1-c1nc2ccc3[nH]ncc3c2c2c1CCCC2 ?
no (0)

Could you please tell me the result logged for COc1cc(-c2nc3sccn3c2-c2ccnc(NCCCNS(=O)(=O)c3ccc(F)cc3)n2)ccc1F in this assay?
no (0)

Could you kindly confirm the outcome this assay logged for Nc1nc(-c2cccc3ccccc23)cc2ccccc12 ?
no (0)

What call does the record list for Cc1nc(NC(=O)COc2ccc(/C=C3\Cc4ccc(Cl)cc4C3=O)cc2)sc1C ?
no (0)

Please share the test call associated with COc1ccc(C2C(N)=NNC2c2cccc(O)c2)cc1 (stereo not given) .
no (0)

Which outcome was entered for the compound CCC(C)(c1cc(C(C)(C)C)c(O)c(C(C)(C)C)c1)c1cc(C(C)(C)C)c(O)c(C(C)(C)C)c1 in this test?
no (0)

Short answer needed: outcome of this test for O=C(O)c1cn(C2CC2)c2cc(N3CCN(C(=O)Nc4nc(-c5ccc(Cl)cc5)cs4)CC3)c(F)cc2c1=O ?
no (0)

Please indicate how the test categorized O=C(N/N=C/[C@H](O)[C@@H](O)[C@@H](O)[C@H](O)CO)c1ccc(NC(=O)c2cccnc2)cc1 .
no (0)

Fill in: this test's call for COc1ccc(C(=O)C[C@]2(O)C(=O)Nc3c(Cl)ccc(Cl)c32)cc1 is ___
no (0)
